Papp A→B: recorded values
protocol: Apparent permeability of the compound from apical to basolateral side in human Caco2 cells by absorption system analysis
measurement.context: Caco-2

{"columns": ["structure.string", "Papp A→B [×10⁻⁶ cm/s]"],
 "data": [
  ["COc1cc(N2CCN(C)CC2)ccc1-c1nc2c(N[C@H]3[C@@H](C(N)=O)[C@@H]4C=C[C@H]3C4)c(Cl)cnc2[nH]1", 5],
  ["COc1cc(CN2CCOCC2)ccc1-c1nc2c(N[C@H]3[C@@H](C(N)=O)[C@@H]4C=C[C@H]3C4)c(Cl)cnc2[nH]1", 10.8]
]}

* * *

Listing: Vd of selected molecules
Test system: Rattus norvegicus
protocol: Volume of distribution in rat at 1 mg/kg, iv
Assay type: ADME, organism-based
Parameters: dose 1 mg/kg, route intravenous
measurement.context: in vivo

{"columns": ["structure.string", "subject.of.test", "Vd"],
 "data": [
  ["COc1cc(N2CCC(N3CCOCC3)CC2)ccc1-c1nc2c(N[C@H]3[C@@H](C(N)=O)[C@@H]4C=C[C@H]3C4)c(Cl)cnc2[nH]1", "Rattus norvegicus", "1.8 L/kg"],
  ["COc1cc(N2CCN(C)CC2)ccc1-c1nc2c(N[C@H]3[C@@H](C(N)=O)[C@@H]4C=C[C@H]3C4)c(Cl)cnc2[nH]1", "Rattus norvegicus", "5.3 L/kg"],
  ["COc1cc(CN2CCOCC2)ccc1-c1nc2c(N[C@H]3[C@@H](C(N)=O)[C@@H]4C=C[C@H]3C4)c(Cl)cnc2[nH]1", "Rattus norvegicus", "5.6 L/kg"],
  ["COc1cc(N2CCC(N3CCN(C)CC3)CC2)ccc1-c1nc2c(N[C@H]3[C@@H](C(N)=O)[C@@H]4C=C[C@H]3C4)c(Cl)cnc2[nH]1", "Rattus norvegicus", "3 L/kg"],
  ["COc1cc(N2CCOCC2)ccc1-c1nc2c(N[C@H]3[C@@H](C(N)=O)[C@@H]4C=C[C@H]3C4)c(Cl)cnc2[nH]1", "Rattus norvegicus", "0.8 L/kg"],
  ["COc1cc(CN2CCN(C)CC2)ccc1-c1nc2c(N[C@H]3[C@@H](C(N)=O)[C@@H]4C=C[C@H]3C4)c(Cl)cnc2[nH]1", "Rattus norvegicus", "1.6 L/kg"]
]}

// provenance: ChEMBL document CHEMBL3217622
